- PROCEDURE TEXT: Primary redox qHTS assay for identification of artifact compounds. (AID 1845223);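 note: 0% = DMSO and 100% = reference compound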
- DETAILS: Amplex Red/HRP redox cycling with DTT, fluorescence; series mostly up to 53.8 µM
Inconclusive results are not listed. Calls of active or inactive are those of the source. Calls come from the whole dose curve; as a rule, active = well fitted activation curve with a large enough effect; inconclusive = small, poorly fitted or top-dose-only effect; inactive = flat fitted curve, though single readings scatter. Where a SMILES comes first, the peptide text is derived from it. The star is where a group is joined. Hexanoyl = CCCCCC(=O)*

>  <COMPOUND>
OC[C@H]1O[C@@H](OC[C@H]2O[C@@H](OCc3ccccc3)[C@H](O)[C@@H](O)[C@@H]2O)[C@H](O)[C@@H](O)[C@@H]1O

>  <redox activity (% of DA3003)>
inactive

$$$$
>  <COMPOUND>
CCCCCC(=O)N1CCC[C@H]1C(=O)N[C@@H](Cc1ccc(O)cc1)C(=O)OC (Hexanoyl-Pro-Tyr-OMe)

>  <redox activity (% of DA3003)>
inactive

$$$$
>  <COMPOUND>
CC(C)=C1C[C@@]2(C)C(=CC1=O)CC[C@@H](O)[C@@H]2C

>  <redox activity (% of DA3003)>
inactive

$$$$
>  <COMPOUND>
O=C(N[C@@H]1CC[C@@H](c2cccc(F)c2F)CN(CC(F)(F)F)C1=O)N1CCC(n2c(=O)[nH]c3ncccc32)CC1

>  <redox activity (% of DA3003)>
inactive

$$$$

* * *

- Tested on: NIH3T3
- PROCEDURE TEXT: Cytotoxic Profiling of Annotated Libraries Using Quantitative High-Throughput Screening (AID 1296008); note: % is set by controls: 0 for no effect and ±100 for the full control effect; nearly all actives have a fitted effect of over 60% in size
- DETAILS: Five cell lines viability, CellTiter-Glo ATP luminescence, 48-72 h; hits give low values
- Method: Cell-based phenotypic screening is a commonly used approach to discover biological pathways, novel drug targets, chemical probes and high-quality hit-to-lead molecules. […] A pintool (Kalypsys) was used to transfer 23 nL of compound solution to the 1536-well assay plates. […] Plates were left at room temperature for 10 min before imaging the ATP-coupled luminescence using a ViewLux microplate imager (PerkinElmer, Waltham, MA).
Records with an inconclusive call do not appear.
MEASURED PARAMETER: max response (%)

>  <COMPOUND>
COc1ccnc(CCc2nc3ncccc3[nH]2)c1

>  <MEASURED PARAMETER>
max response

>  <UNIT OF MEASUREMENT>
%

>  <QUANTITATIVE RESULT>
3.19

$$$$
>  <COMPOUND>
C/C=C/C=C/[C@@H]1O[C@](O)([C@H](CC)C(=O)NC/C=C/C=C(\C)[C@@H](OC)[C@@H](C)[C@@H]2O[C@H](/C=C/C=C/C=C(\C)C(=O)c3c(O)ccn(C)c3=O)[C@H](O)[C@@H]2O)[C@H](O)[C@H](O)C1(C)C

>  <MEASURED PARAMETER>
max response

>  <UNIT OF MEASUREMENT>
%

>  <QUANTITATIVE RESULT>
2.66

$$$$
>  <COMPOUND>
C[C@]12CC/C(=N\OCC(=O)O)C=C1CC[C@@H]1[C@@H]2[C@@H](O)C[C@@]2(C)[C@H]1CC[C@]2(O)C(=O)CO

>  <MEASURED PARAMETER>
max response

>  <UNIT OF MEASUREMENT>
%

>  <QUANTITATIVE RESULT>
-9.49

$$$$
>  <COMPOUND>
COC(=O)[C@H](Cc1cccc(C(=N)N)c1)[C@@H](C)NC(=O)c1ccc(-c2cc[n+]([O-])cc2)cc1

>  <MEASURED PARAMETER>
max response

>  <UNIT OF MEASUREMENT>
%

>  <QUANTITATIVE RESULT>
0.404

$$$$
>  <COMPOUND>
CC(=O)NC(C(=O)OC1CCC(C)(C)C2CC=C3C(=O)OCC3C12C)C(C)C (configuration not stated)

>  <MEASURED PARAMETER>
max response

>  <UNIT OF MEASUREMENT>
%

>  <QUANTITATIVE RESULT>
4.96

$$$$
>  <COMPOUND>
CC1OC(OC2C(OC3C(O[C@H]4CC[C@@]5(C)C(CC[C@]6(C)C5C(=O)CC5=C7CC(C)(C)CC(O)[C@]7(C)CC[C@]56C)C4(C)C)OC(C(=O)O)C(O)C3O)OCC(O)C2O)C(O)C(O)C1O (some centres not stated)

>  <MEASURED PARAMETER>
max response

>  <UNIT OF MEASUREMENT>
%

>  <QUANTITATIVE RESULT>
-0.899

$$$$
>  <COMPOUND>
CN(C)c1ccc(C2O[C@@H](c3ccccc3)C[C@H](c3ccccc3)O2)cc1 (some centres not stated)

>  <MEASURED PARAMETER>
max response

>  <UNIT OF MEASUREMENT>
%

>  <QUANTITATIVE RESULT>
4.55

$$$$

* * *

- System: OV90
- PROCEDURE TEXT: Primary qHTS to identify gynecologic anti-cancer compounds using libraries of approved drugs and bioactive compounds (AID 1345084); note: % is set by controls: 0 for no effect and ±100 for the full control effect; nearly all actives have a fitted effect of over 55% in size
- DETAILS: Gynecologic cancer cell panel viability, ATPlite luminescence, 48 h; series mostly up to 57.5 µM
Records with an inconclusive call do not appear. Active and inactive are the calls of the source. Calls follow the shape of the dose curve; as a rule, active = well fitted cell-killing curve with a large enough effect; inconclusive = small, poorly fitted or top-dose-only effect, or effect the other way; inactive = flat fitted curve, though single readings scatter. Where a SMILES comes first, the peptide text is derived from it. The star is where a group is joined. βNA = c1ccc2cc(N*)ccc2c1; Cbz = O=C(OCc1ccccc1)*

>  <COMPOUND>
COc1cc([C@H]2OC[C@](O)(Cc3ccc(O[C@@H]4O[C@H](CO)[C@@H](O)[C@H](O)[C@H]4O)c(OC)c3)[C@@H]2CO)ccc1O

>  <activity change, negative = cytotoxicity>
inactive

$$$$
>  <COMPOUND>
COc1cc2c(c(OC)c1O)C(c1ccc(O)cc1)C1C(=O)OC3C(COC(=O)C1=C2)OC(CO)(OC1OC(COC(=O)/C=C/c2ccc(OC4OC(C)C(O)C(O)C4O)cc2)C(O)C(O)C1O)C3O (configuration not stated)

>  <activity change, negative = cytotoxicity>
10.3% [at 11.6 µM] (inactive)

$$$$
>  <COMPOUND>
CC(C)CC(NC(=O)OCc1ccccc1)C(=O)NC(CC(C)C)C(=O)NC(CCC(=O)O)C(=O)Nc1ccc2ccccc2c1 (stereo not drawn) (Cbz-Leu-Leu-Glu-βNA; configuration not given here)

>  <activity change, negative = cytotoxicity>
inactive

$$$$
>  <COMPOUND>
CO[C@H]1c2cc(C(C)C)c(O)c(O)c2[C@@]23CCCC(C)(C)C2[C@@H]1OC3=O (some centres not stated)

>  <activity change, negative = cytotoxicity>
inactive

$$$$
>  <COMPOUND>
C=C(C(=O)O)C1CC(OC(=O)CC(C)CC)C2(C)CCCC(=C)C2C1 (configuration not stated)

>  <activity change, negative = cytotoxicity>
inactive

$$$$
>  <COMPOUND>
CC(C)c1c(NC(=O)Nc2ccc(Cl)cc2)c(=O)n(-c2ccccc2)n1C

>  <activity change, negative = cytotoxicity>
inactive

$$$$
>  <COMPOUND>
O=S(=O)(O)c1ccc(Nc2ncnc3c2ncn3[C@@H]2O[C@H](CO)[C@@H](O)[C@H]2O)cc1

>  <activity change, negative = cytotoxicity>
inactive

$$$$

* * *

- TARGET SYSTEM: Phospholipid hydroperoxide glutathione peroxidase GPX4 (Homo sapiens) (UniProt P36969)
- Sequence (P36969 whole entry, looked up): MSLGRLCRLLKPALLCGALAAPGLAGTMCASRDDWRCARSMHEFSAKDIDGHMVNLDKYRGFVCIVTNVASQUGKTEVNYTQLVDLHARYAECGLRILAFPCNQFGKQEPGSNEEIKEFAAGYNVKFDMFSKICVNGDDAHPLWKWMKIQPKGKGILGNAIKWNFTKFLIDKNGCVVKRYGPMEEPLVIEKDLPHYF
- PROCEDURE TEXT: Primary qHTS Assay for Inhibitors of Recombinant Selenoprotein Glutathione Peroxidase 4 (GPX4) (AID 1845192); note: nearly all actives have a fitted effect of over 65% in size; for activity change, negative = inhibition: % is set by controls: 0 for no effect and ±100 for the full control effect
- DETAILS: recombinant GPX4, GR-coupled NADPH fluorescence, 15 min; series mostly up to 27.8 µM
Inconclusive results are not listed. The source made the active and inactive calls. Calls come from the whole dose curve; as a rule, active = well fitted inhibition curve with a large enough effect; inconclusive = small, poorly fitted or top-dose-only effect; inactive = flat fitted curve, though single readings scatter.

>  <MOLECULE>
CC1(C)CCC[C@]2(C)C1CC=C(CO)[C@H]2CC/C(=C/CO)CO (stereo not given in full)

>  <activity change, negative = inhibition>
inactive

$$$$
>  <MOLECULE>
CC1CCC2(C(=O)O)CCC3(C)C(=CCC4C5(C)CCC(O)C(C)(C(=O)O)C5CCC43C)C2C1(C)O (stereo not given)

>  <activity change, negative = inhibition>
inactive

$$$$
>  <MOLECULE>
O=C(O)[C@H]1Cc2ccccc2CN1

>  <activity change, negative = inhibition>
3.24% [at 4.52 µM] (inactive)

$$$$
>  <MOLECULE>
Cc1ncc([N+](=O)[O-])n1C[C@H](O)CN1CCOCC1

>  <activity change, negative = inhibition>
inactive

$$$$
>  <MOLECULE>
CCOc1ccc(-c2nn3ncccc3c2-c2ccc(S(C)(=O)=O)cc2)cc1

>  <activity change, negative = inhibition>
inactive

$$$$
